Test system: Wolbachia pipientis
EXPERIMENT_DESCRIPTION: Anti-Wolbachia Cell-Based Screen
Format: functional
Design: scale not given: in the data most compounds retested in dose-response had high values
CONDITION_CONTEXT: 5 µM
The campaign covered roughly 48,000 compounds. About 13,000 (27%) showed an effect of 50% or more. The list shows a part of the results.
In this section we review reported Percent Effect values for a set of compounds.
Please respond with the number in % and leave the unit unwritten.

Solved cases below.
CC(CCc1cccc(F)c1)NC(=O)NCc1ncnn1C (configuration not stated)    -8.39
Cc1cc2ccccc2n1CCC(=O)NCc1ncc[nH]1    -13.5
CCCC1(CO)CCCN(C(=O)CNC(C)=O)C1 (configuration not stated)    72.22
COc1ccc(CCc2nnc(NC(=O)C3CC34CCC4)s2)cc1OC (configuration not stated)    134.8
O=C(CCn1cnnn1)N1CCCC(CO)(CCCc2ccccc2)C1 (configuration not stated)    2.487

Reported Percent Effect for `CNC(=O)[C@H]1CO[C@H]2CCN(c3ncc(F)cn3)C[C@H]2C1.O=C(O)C(F)(F)F` : what is it? 80.41

And the next one, `CC1(C)[C@H](Cc2cc(CO)on2)C[C@@H]1N(CC1CC1)CC1CC1` ? 3.295
